B1: CROP (parent)
chain: VFGRGDNISDVSKFLEDDKWMEE

variants of: B1; experiment: protein stability index of a GFP-peptide fusion (GPS, HEK-293T) (PSI 1-6); higher = more stable; settings: c terminus: native;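 also: lentivirally expressed fusions sorted by FACS into six bins by GFP to DsRed ratio, PSI derived from sequencing read proportions per bin multiplied by bin number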
Attribute: protein stability index
Please reply with the value in numeric form only.

Reference set, count: 4
>>> measured_value("K19E")
3.41
>>> measured_value("S12A")
1.4
>>> measured_value("W20D")
4.04
>>> measured_value("R4A")
2.43

Ask | protein stability index for "R4K" ?
Reply | 2.41

Ask | I have this variant here, "I8F" , and I need its recorded protein stability index.
Reply | 2

Ask | Form field: reported protein stability index of "E23I"
Reply | 4.38

Ask | Param item = "G3K" ; retrieve measured protein stability index.
Reply | 1.44

Ask | Given "F2W" , state its recorded protein stability index.
Reply | 2.85

Ask | protein stability index lookup needed for "M21N" , thanks.
Reply | 1.43

Ask | Find the recorded protein stability index belonging to "G3R" and report it.
Reply | 2.1

Ask | What does the record list as protein stability index for "G3S" ?
Reply | 1.82

Ask | I'd like to know its protein stability index. The variant in question is "R4Y"
Reply | 2.31

Ask | Find the recorded protein stability index belonging to "E16Q" and report it.
Reply | 1.95

Ask | Entry "F14T" has what protein stability index?
Reply | 4.42

Ask | Report protein stability index for "D6I" please.
Reply | 2.48

Ask | I have this variant here, "I8Y" , and I need its recorded protein stability index.
Reply | 1.74
